Data credit: ChEMBL document CHEMBL3045129

Reported UI values follow for various compounds
System: Rattus norvegicus
Experiment: Toxicity inRattus norvegicus albino (rat) assessed as ulcerogenicity at 100 mg/kg, po measured after 1 hr
Type: organism-based
Set-up: dose 100 mg/kg, route oral
Conditions: in vivo

{"smilesRecord": "Cc1cc(-c2ccc(Cl)cc2)n(-c2ccc(S(N)(=O)=O)cc2)n1", "UI": 5.2}
{"smilesRecord": "Cc1cc(C)n(CC(=O)NNC(=S)Nc2ccc([N+](=O)[O-])cc2)n1", "UI": 18.6}
{"smilesRecord": "Cc1cc(C)n(Cc2nnc(Nc3ccc([N+](=O)[O-])cc3)s2)n1", "UI": 15.6}
{"smilesRecord": "COc1ccc2c(c1)c(CC(=O)O)c(C)n2C(=O)c1ccc(Cl)cc1", "UI": 20.4}

====

Test system: Rattus norvegicus
Assay: Anti-inflammatory activity inRattus norvegicus albino (rat) assessed as inhibition of carrageenan-induced paw edema at 100 mg/kg, po administered 2 hr prior challenge measured after 1 hr post challenge
Assay type: functional
measurementKind: inhibition in vivo at 100 mg/kg (%)

{"smilesRecord": "Cc1cc(-c2ccc(Cl)cc2)n(-c2ccc(S(=O)(=O)Nc3nccs3)cc2)n1", "measured": 44.3}
{"smilesRecord": "Cc1cc(C)n(Cc2nnc(Nc3ccc([N+](=O)[O-])cc3)s2)n1", "measured": 50}
{"smilesRecord": "Cc1cc(-c2ccc(Cl)cc2)n(Cc2nnc(Nc3ccc([N+](=O)[O-])cc3)s2)n1", "measured": 45}
{"smilesRecord": "Cc1ccc(-c2cc(C(F)(F)F)nn2-c2ccc(S(N)(=O)=O)cc2)cc1", "measured": 45.8}

====

Test system: Rattus norvegicus
Assay: Anti-inflammatory activity inRattus norvegicus albino (rat) assessed as inhibition of carrageenan-induced paw edema at 100 mg/kg, po administered 1 hr prior challenge measured after 1 hr post challenge
Assay type: functional
measurementKind: inhibition in vivo at 100 mg/kg (%)

{"smilesRecord": "Cc1cc(C)n(Cc2n[nH]c(=S)n2-c2ccc([N+](=O)[O-])cc2)n1", "measured": 16.6}
{"smilesRecord": "Cc1cc(C)n(CC(=O)NNC(=S)Nc2ccc([N+](=O)[O-])cc2)n1", "measured": 36.1}
{"smilesRecord": "COc1ccc(NC(=S)NNC(=O)Cn2nc(C)cc2C)cc1", "measured": 30.3}
{"smilesRecord": "Cc1cc(-c2ccc(Cl)cc2)n(-c2ccc(S(=O)(=O)Nc3nccs3)cc2)n1", "measured": 34.1}
{"smilesRecord": "Cc1cc(-c2ccc(Cl)cc2)n(Cc2nnc(Nc3ccc([N+](=O)[O-])cc3)s2)n1", "measured": 32.8}
{"smilesRecord": "Cc1ccc(-c2cc(C(F)(F)F)nn2-c2ccc(S(N)(=O)=O)cc2)cc1", "measured": 31.4}
{"smilesRecord": "Cc1cccc(-n2c(Cn3nc(C)cc3C)n[nH]c2=S)c1", "measured": 13.2}
{"smilesRecord": "Cc1cc(-c2ccc(Cl)cc2)n(Cc2n[nH]c(=S)o2)n1", "measured": 15.4}
{"smilesRecord": "COc1ccc2c(c1)c(CC(=O)O)c(C)n2C(=O)c1ccc(Cl)cc1", "measured": 31.5}
{"smilesRecord": "Cc1cc(C)n(Cc2n[nH]c(=S)o2)n1", "measured": 14.4}
{"smilesRecord": "Cc1cc(-c2ccccc2)n(Cc2n[nH]c(=S)o2)n1", "measured": 26.3}
{"smilesRecord": "CCCNc1nnc(Cn2nc(C)cc2-c2ccccc2)s1", "measured": 26.9}
{"smilesRecord": "Cc1cc(-c2ccc(Cl)cc2)n(-c2ccc(S(N)(=O)=O)cc2)n1", "measured": 37.2}
{"smilesRecord": "Cc1cc(C)n(Cc2nnc(Nc3ccc([N+](=O)[O-])cc3)s2)n1", "measured": 37.5}
{"smilesRecord": "Cc1cccc(NC(=S)NNC(=O)Cn2nc(C)cc2C)c1", "measured": 12.3}
